The reported measurements were obtained from patent US6066642A.

A collection of compounds and their measured Ki
# study-system: A2a receptors (Rattus norvegicus, UniProt P30543)
# Construct: Displacement of specific [^3 H]; from tissue; host or cells: rat striatal membranes
# Sequence (P30543 whole entry): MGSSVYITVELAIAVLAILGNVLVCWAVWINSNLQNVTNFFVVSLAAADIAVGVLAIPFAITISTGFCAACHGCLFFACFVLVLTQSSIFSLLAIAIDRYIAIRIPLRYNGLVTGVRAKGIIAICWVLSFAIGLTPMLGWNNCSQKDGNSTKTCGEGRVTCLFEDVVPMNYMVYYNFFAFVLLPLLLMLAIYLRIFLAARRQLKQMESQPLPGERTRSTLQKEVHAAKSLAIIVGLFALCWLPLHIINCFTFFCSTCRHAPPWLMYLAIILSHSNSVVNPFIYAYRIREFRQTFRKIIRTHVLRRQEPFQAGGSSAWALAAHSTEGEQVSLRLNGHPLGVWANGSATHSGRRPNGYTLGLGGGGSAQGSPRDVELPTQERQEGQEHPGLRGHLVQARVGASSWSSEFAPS
# measurement-protocol: radioligand binding, displacement of specific [3H]CGS 21680 binding in rat striatal membranes
# protocol-conditions: Table 10; [3H]CGS 21680, rat striatal membranes; read-out: Ki rA2a
Hi! Could you send only the number? It should be in µM, unit omitted.

Solved cases (2 shown):
molecule=COc1ccc(-c2ccncc2)cc1 measured=71
molecule=CCOC(=O)c1c(C)nc(C)c(C(=O)OC)c1C measured=8.96

# input for lookup
Input: Which Ki reading was recorded for the compound CCOC(=O)c1c(C)nc(-c2ccccc2)c(C(=O)OCC)c1C ?
Output: 28.4
